Assay: Primary qHTS for inhibitors of nuclear receptor binding SET domain protein 2 (NSD2) in an RCH-ACV wild type WT cells (2C) (AID 1645877); further: nearly all actives have a fitted effect of over 70% in size; further: potency means the concentration at half of the fitted maximal effect
Conditions: RCH-ACV (leukaemia line) NSD2 WT (2C) viability, CellTiter-Glo, 72 h; series mostly up to 44.9 µM
Inconclusive results are not listed. The source made the active and inactive calls. The call rests on the fitted dose curve; in most records, active means well fitted inhibition curve with a large enough effect; inconclusive means small, poorly fitted or top-dose-only effect; inactive means no such curve, though single readings can be large or run the other way.
assay-readout: Potency

OC[C@H]1O[C@@H](OCCc2ccccc2)[C@H](O[C@@H]2OC[C@](O)(CO)[C@H]2O)[C@@H](O)[C@@H]1O
inactive
CCCn1c(=O)c2[nH]c(-c3ccc(OCC(=O)O)cc3)nc2n(CCC)c1=O
inactive
Cc1ccc(NC(=O)C(=O)NC2CC(C)(C)NC(C)(C)C2)cc1
inactive
C=C[C@H]1[C@H](O[C@@H]2O[C@H](CO)[C@@H](O)[C@H](O)[C@H]2O)OC=C(C(=O)OC)[C@H]1CC(=O)O
inactive

I have 3 compounds here; please give me Potency for each one.
1. COC(=O)C1=COC(O[C@@H]2O[C@H](CO)[C@@H](O)[C@H](O)[C@H]2O)[C@H]2[C@@H]1[C@H](OC(=O)CCc1ccc(O)cc1)C[C@]2(C)O (some centres not stated)
2. CC(C)c1ccc2c(c1)C(=O)CC1[C@@](C)(C(=O)O)CCC[C@]21C (some centres not stated)
3. C=C[C@@H]1[C@H](O[C@@H]2O[C@H](CO)[C@@H](O)[C@H](O)[C@H]2O)OC=C(C(=O)O)[C@H]1CCOC(=O)/C=C/c1ccc(O)c(O)c1

Solution:
inactive
inactive
inactive

I have 3 compounds here; please give me Potency for each one.
1. O=C(Cc1ccc(-c2ccccc2)cc1)NC1CCC1
2. NCc1ccc(Nc2ncc(F)c(Nc3ccccc3)n2)cc1
3. CC(=O)O[C@H]1[C@@H](O)[C@H](O[C@H]2[C@@H]3C=CO[C@@H](O[C@H]4O[C@@H](CO)[C@H](O)[C@@H](O)[C@@H]4O)[C@@H]3[C@@]3(CO)O[C@@H]23)O[C@@H](C)[C@@H]1OC(=O)/C=C/c1ccccc1

Solution:
["inactive", "4090 nM (active)", "inactive"]

I have 4 compounds here; please give me Potency for each one.
1. COC(=O)c1c(C)cc(OC(=O)c2c(C)cc(OC)cc2OC)cc1O[C@@H]1O[C@H](CO)[C@@H](O)[C@H](O)[C@H]1O
2. CN[C@H](C(=O)N[C@H](C(=O)N(C)[C@H](/C=C(\C)C(=O)O)C(C)C)C(C)(C)C)C(C)(C)c1ccccc1
3. C=C(C)C1CCC(C)C12CC(O)C1(C)OC1C2OC(=O)C(N)CCC(=O)O (configuration not stated)
4. COc1ccc2[nH]c3c(-c4cccc5ccccc45)nccc3c2c1

Solution:
1. inactive
2. inactive
3. inactive
4. 578 nM (active)
